test system: Rattus norvegicus; experiment: Compound was tested in vivo for antiinflammatory activity against chronic adjuvant arthritic rat by prophylactic inhibition 2 degree paw after peroral administration of 18 mg/kg of dose; details: po
measured attribute: inhibition in vivo at 18 mg/kg
Show the value, then the unit it is measured in.

// worked examples, inhibition in vivo at 18 mg/kg included
smi: CCCCc1c(O)n(Cc2ccccc2)c2nc3c(c(=O)n(C)c(=O)n3C)n2c1=O
experimental value: 64%
--
smi: CC(C)=CCc1c(O)n(Cc2ccc(F)cc2)c2nc3c(c(=O)n(C)c(=O)n3C)n2c1=O
experimental value: 69%
--
smi: CCCCc1c(O)n(Cc2ccc(F)cc2)c2nc3c(c(=O)n(C)c(=O)n3C)n2c1=O
experimental value: 70%

Now examine the next entry.
Would you mind telling me what inhibition in vivo at 18 mg/kg value was observed for `CCCc1c(O)n(Cc2ccc(F)cc2)c2nc3c(c(=O)n(C)c(=O)n3C)n2c1=O` ?
49%

Provenance of the data: ChEMBL document CHEMBL1123282
